tested on: K562 cells; assay: In-vitro Cell Proliferation Assay (K562 cells; measure of endogenous Bcr-Abl kinase inhibition); assay type: cell-based; settings: Homo sapiens, read-out: % inhibition (at 0.1 nM); 0.1 nM; cell proliferation of K562 cells
Record form. Attribute: inhibition at 0.0001 µM. Fill in for each entry.
Please state the figure in %; there is no need to write the unit.

Req: Specify inhibition at 0.0001 µM for Cc1ccc(C(=O)NNC(=O)c2c(C)cccc2Cl)cc1C#Cc1cnc2ccccc2c1 and stop.
Resp: 37

Req: Give the measured inhibition at 0.0001 µM for Cc1ccc(C(=O)NNC(=O)c2c(C)cccc2Cl)cc1C#Cc1cnc2ccc(F)cc2c1
Resp: 0

Req: // Input: Cc1ccc(C(=O)NNC(=O)c2c(C)cccc2Cl)cc1C#Cc1ccc2ncccc2c1 . Output its inhibition at 0.0001 µM only.
Resp: 0

Req: Identify the reported inhibition at 0.0001 µM for the following entry. Cc1cccc(Cl)c1C(=O)NNC(=O)c1cccc(C#Cc2cnc3ccccc3c2)c1
Resp: 2

Req: Indicate the recorded inhibition at 0.0001 µM value for this compound: Cc1cccc(Cl)c1C(=O)NNC(=O)c1ccc(F)c(C#Cc2cnc3ccccc3c2)c1
Resp: 6

Req: Input Cc1ccc(C(=O)NNC(=O)c2c(C)cccc2Cl)cc1C#Cc1cnc2ccc(Cl)cc2c1 , output reported inhibition at 0.0001 µM.
Resp: 0
